Data provenance is ChEMBL document CHEMBL5104180.

test system: HepG2; test: Cytotoxicity against human HepG2 cells assessed as reduction in cell viability measured after 48 hrs by MTT assay; assay type: functional, cell-based; conditions: HepG2, 48 h
pIC50: −log10 of the molar value.
The entries below come with measured pIC50 values attached.
observation.type: pIC50

compound	observation.type	value.relation.sign	quantitative.result
COc1ccc(-n2c(-c3ccc4c(c3)c3ccccc3n4Cc3cn(CCOCCO[C@@H]4O[C@H](COC(C)=O)[C@@H](OC(C)=O)[C@H](OC(C)=O)[C@H]4OC(C)=O)nn3)nc(-c3ccc(N4CCN(C)CC4)cc3)c2-c2ccc(N3CCN(C)CC3)cc2)cc1	pIC50	=	4.96
COc1ccc(-n2c(-c3ccc4c(c3)c3ccccc3n4Cc3cn(CCOCCO[C@@H]4O[C@H](CO)[C@@H](O)[C@H](O)[C@H]4O)nn3)nc(-c3ccc(N4CCN(C)CC4)cc3)c2-c2ccc(N3CCN(C)CC3)cc2)cc1 (single isomer, unassigned)	pIC50	<	4.49
CCn1c2ccccc2c2cc(-c3nc(-c4ccc(N5CCN(C)CC5)cc4)c(-c4ccc(N5CCN(C)CC5)cc4)n3-c3ccc(OCCOCCOC4(C)O[C@H]5O[C@H](CO)[C@@H](O)[C@H](O)[C@H]5O4)cc3)ccc21 (single isomer, unassigned)	pIC50	=	5.30
CCn1c2ccccc2c2cc(-c3nc(-c4ccc(N5CCN(C)CC5)cc4)c(-c4ccc(N5CCN(C)CC5)cc4)n3-c3ccc(OCCCOC4(C)O[C@H]5O[C@H](COC(C)=O)[C@@H](OC(C)=O)[C@H](OC(C)=O)[C@H]5O4)cc3)ccc21 (single isomer, unassigned)	pIC50	=	5.11

###

system: Quadruplex DNA; assay: Stabilization of c-MYC G4 quadruplex DNA Pu22 (unknown origin) assessed as change in melting temperature at 2 uM by CD spectroscopy; assay type: nucleic-acid assay

molecule	ΔTm (°C)
CCn1c2ccccc2c2cc(-c3nc(-c4ccc(N5CCN(C)CC5)cc4)c(-c4ccc(N5CCN(C)CC5)cc4)n3CCOCCO[C@@H]3O[C@H](COC(C)=O)[C@@H](OC(C)=O)[C@H](OC(C)=O)[C@H]3OC(C)=O)ccc21 (single isomer, unassigned)	11.4
CCn1c2ccccc2c2cc(-c3nc(-c4ccc(N5CCN(C)CC5)cc4)c(-c4ccc(N5CCN(C)CC5)cc4)n3CCO[C@@H]3O[C@H](COC(C)=O)[C@H](OC(C)=O)[C@H](OC(C)=O)[C@H]3OC(C)=O)ccc21 (single isomer, unassigned)	9.3
CCn1c2ccccc2c2cc(-c3nc(-c4ccc(N5CCN(C)CC5)cc4)c(-c4ccc(N5CCN(C)CC5)cc4)n3-c3ccc(O[C@@H]4O[C@H](CO)[C@@H](O)[C@H](O)[C@H]4O)cc3)ccc21	15.5
CCn1c2ccccc2c2cc(-c3nc(-c4ccc(N5CCN(C)CC5)cc4)c(-c4ccc(N5CCN(C)CC5)cc4)n3-c3ccc(OCCOCCOC4(C)O[C@H]5O[C@H](COC(C)=O)[C@@H](OC(C)=O)[C@H](OC(C)=O)[C@H]5O4)cc3)ccc21 (single isomer, unassigned)	22.1
CCn1c2ccccc2c2cc(-c3nc(-c4ccc(N5CCN(C)CC5)cc4)c(-c4ccc(N5CCN(C)CC5)cc4)n3-c3ccc(OCCCO[C@@H]4O[C@H](CO)[C@@H](O)[C@H](O)[C@H]4O)cc3)ccc21 (single isomer, unassigned)	16.7
COc1ccc(-n2c(-c3ccc4c(c3)c3ccccc3n4Cc3cn([C@@H]4O[C@H](CO)[C@H](O)[C@H](O)[C@H]4O)nn3)nc(-c3ccc(N4CCN(C)CC4)cc3)c2-c2ccc(N3CCN(C)CC3)cc2)cc1 (single isomer, unassigned)	12.4
COc1ccc(-n2c(-c3ccc4c(c3)c3ccccc3n4Cc3cn(CCOCCO)nn3)nc(-c3ccc(N4CCN(C)CC4)cc3)c2-c2ccc(N3CCN(C)CC3)cc2)cc1	13.4
CCn1c2ccccc2c2cc(-c3nc(-c4ccc(N5CCN(C)CC5)cc4)c(-c4ccc(N5CCN(C)CC5)cc4)n3CCO[C@@H]3O[C@H](CO)[C@@H](O)[C@H](O)[C@H]3O)ccc21 (single isomer, unassigned)	14.7
CCn1c2ccccc2c2cc(-c3nc(-c4ccc(N5CCN(C)CC5)cc4)c(-c4ccc(N5CCN(C)CC5)cc4)n3-c3ccc(OCCOCCO[C@@H]4O[C@H](CO)[C@@H](O)[C@H](O)[C@H]4O)cc3)ccc21 (single isomer, unassigned)	18
CCn1c2ccccc2c2cc(-c3nc(-c4ccc(N5CCN(C)CC5)cc4)c(-c4ccc(N5CCN(C)CC5)cc4)n3CCOCCO[C@@H]3O[C@H](CO)[C@@H](O)[C@H](O)[C@H]3O)ccc21 (single isomer, unassigned)	16.3
CCn1c2ccccc2c2cc(-c3nc(-c4ccc(N5CCN(C)CC5)cc4)c(-c4ccc(N5CCN(C)CC5)cc4)n3-c3ccc(OCc4ccccc4)cc3)ccc21	7.6
CCn1c2ccccc2c2cc(-c3nc(-c4ccc(N5CCN(C)CC5)cc4)c(-c4ccc(N5CCN(C)CC5)cc4)n3-c3ccc(OCCOCCO[C@@H]4O[C@H](COC(C)=O)[C@@H](OC(C)=O)[C@H](OC(C)=O)[C@H]4NC(=O)C(F)(F)F)cc3)ccc21 (single isomer, unassigned)	14
CCn1c2ccccc2c2cc(-c3nc(-c4ccc(N5CCN(C)CC5)cc4)c(-c4ccc(N5CCN(C)CC5)cc4)n3-c3ccc(OCCCOC(C)=O)cc3)ccc21	6.8
CCn1c2ccccc2c2cc(-c3nc(-c4ccc(N5CCN(C)CC5)cc4)c(-c4ccc(N5CCN(C)CC5)cc4)n3CCOCCO[C@@H]3O[C@H](COC(C)=O)[C@H](OC(C)=O)[C@H](OC(C)=O)[C@H]3OC(C)=O)ccc21 (single isomer, unassigned)	10.3
CCn1c2ccccc2c2cc(-c3nc(-c4ccc(N5CCN(C)CC5)cc4)c(-c4ccc(N5CCN(C)CC5)cc4)n3-c3ccc(OCCOCCO[C@@H]4O[C@H](CO)[C@H](O)[C@H](O)[C@H]4O)cc3)ccc21 (single isomer, unassigned)	16.2
CCn1c2ccccc2c2cc(-c3nc(-c4ccc(N5CCN(C)CC5)cc4)c(-c4ccc(N5CCN(C)CC5)cc4)n3-c3ccc(OCCOCCO[C@@H]4O[C@H](CO)[C@@H](O)[C@H](O)[C@H]4NC(=O)C(F)(F)F)cc3)ccc21 (single isomer, unassigned)	16.3
CCn1c2ccccc2c2cc(-c3nc(-c4ccc(N5CCN(C)CC5)cc4)c(-c4ccc(N5CCN(Cc6cn([C@@H]7O[C@H](CO)[C@H](O)[C@H](O)[C@H]7O)nn6)CC5)cc4)[nH]3)ccc21 (single isomer, unassigned)	18.4
